FYI, the data here is from the supplement of paper PMC6555819.

Could you please report measured PBM binding z-score for the items listed next?
- Test system: RARg:RXRa (NR concentration 270 nM, RXRa partner concentration 90 nM)
- protocol details: PBM binding z-score (relative to random genomic background probes); higher = stronger binding; sequences stand for … in GC…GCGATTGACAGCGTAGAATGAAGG

Value of PBM binding z-score reported for the sequence "TTACCAACGTGAGCTGAGGTCGTTGATCCAACTC" is 0.0093

Value of PBM binding z-score reported for the sequence "CCTTCCGGGTCAAGGTTATAGCACGGGTGGTACG" is 4.76

Value of PBM binding z-score reported for the sequence "ATATGTAGGTTATATCCGGGTCATTCAGGCTATG" is 3.85

Value of PBM binding z-score reported for the sequence "TGAATGAGGTTATAGGATCAGGGAACGTTGCAAA" is 1.53

Value of PBM binding z-score reported for the sequence "GCATATAGGTAATACAAGGTGAAAGTACGATTGT" is 0.699

Value of PBM binding z-score reported for the sequence "CCGACTGGGGCATAAGATTACCATAAGCCAGCCC" is -0.0949

Value of PBM binding z-score reported for the sequence "CGTTCAAGGTCAGCAGGTCAGTGAAAGCGACGTG" is 6.75

Value of PBM binding z-score reported for the sequence "CTCGAAAGGTCGTGCTCAGGTGAGGATACCAAAC" is 5.12

Value of PBM binding z-score reported for the sequence "ATATGTAGGTGAGCTGGGGTCATTCAGACTAGGC" is 4.01

Value of PBM binding z-score reported for the sequence "CGTCGAAGGTCAGCAGGTCAGTGAAAGCGACGTG" is 6.48

Value of PBM binding z-score reported for the sequence "CCTGCTAGGTGATGGTCAGCTAATCTACAGTATG" is -0.189

Value of PBM binding z-score reported for the sequence "CCTGCTAGGTCATGGTCAGCTAATCTACAGTATG" is 4.01

Value of PBM binding z-score reported for the sequence "CAGACTAGGTCAGGGCCAGTATAGGAGGAACGTT" is 2.67

Value of PBM binding z-score reported for the sequence "ATCGAAAGGTCGTGAGGTGAATATACAGAAAGGC" is 4.98

Value of PBM binding z-score reported for the sequence "CGTCCTAGGTCAGAGAGGTCAGTGAATGCCGAGT" is 5.31

Value of PBM binding z-score reported for the sequence "CGTCCAAGGTCAGAAGGTCAGTGAAAGCGACGTG" is 7.13

###

- Tested on: PXR:RXRa (NR concentration 270 nM, RXRa partner concentration 90 nM)
- protocol details: PBM binding z-score (relative to random genomic background probes); higher = stronger binding; sequences stand for … in GC…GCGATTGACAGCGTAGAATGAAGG
Could you please report measured PBM binding z-score for the items listed next?
The reply should be a number, written without any unit.

Value of PBM binding z-score reported for the sequence "ATCTCTAGGGAAAGTTCAGTGAAAGATCGATAGA" is 1.52

Value of PBM binding z-score reported for the sequence "TAGCCTAGGTCATTCAGAGGCCAGTATAGAAAGC" is 2.58

Value of PBM binding z-score reported for the sequence "ATATGTAGGTTAGATCCGGGTCATTCAGGCTATG" is 3.1

Value of PBM binding z-score reported for the sequence "GCGACTGGGGCATCAGCAGGATACCATAACTTAA" is -0.691

Value of PBM binding z-score reported for the sequence "CCAACTGGGCCAAAGGTCATTGATTCCAATGCTC" is 5.33

Value of PBM binding z-score reported for the sequence "CTACCAAGGTGAACACGGTCGTTGATTACTATTC" is 0.292

Value of PBM binding z-score reported for the sequence "ACTATTGGTTGAGACGAGGGCAACCGATAGGTTG" is 1.5

Value of PBM binding z-score reported for the sequence "ATCGTAAGGTCGACGAGGTGAGTATACACCGTTT" is 2.17

Value of PBM binding z-score reported for the sequence "CTACCAGGGTGAACAAGGTCGTTGATTACTATTC" is 3.12

Value of PBM binding z-score reported for the sequence "GCAGACAGGTGAAACGCAGGTAACTTAGGGTGGC" is -0.333

Value of PBM binding z-score reported for the sequence "TCGAGTAGGTTAGTCGGGGCGTTCAGCCAACATA" is -0.237

Value of PBM binding z-score reported for the sequence "CCTAGCAGTCCAGGGTCACTCAAGCATTTCGCTT" is 2.58

Value of PBM binding z-score reported for the sequence "TCTGCTAGCTCAACGATGGTCAGCTAATCTGCTA" is -0.381

Value of PBM binding z-score reported for the sequence "TCTTGTAGAACAACAGGAGGTTAAGAAAGATCGA" is 0.716

Value of PBM binding z-score reported for the sequence "ATATGTAGGTTACATCCGGGTCATTTAGGCTATG" is 3.45

Value of PBM binding z-score reported for the sequence "TCTTGTAGATCAACAGGAGGTTAAGAGAGATCGA" is 0.838

Value of PBM binding z-score reported for the sequence "TCGAGTAGGTGAGGGGCATTCAGAATGGCGTCGA" is 0.21

Value of PBM binding z-score reported for the sequence "CTAGACAGGTGAAAGGTAACTCAGTCTGGTACGC" is 0.951

Value of PBM binding z-score reported for the sequence "GTACCAAGGAGAATAGGTCGTTGATGAGTAGGCG" is 0.103

Value of PBM binding z-score reported for the sequence "CGTCCAAGGTCAGGGTCAGTGAAAGAGACTCGAA" is 3.7

Value of PBM binding z-score reported for the sequence "TGTCGGAGGACACGAAGGTCAGAGCTTTCCAGAG" is 1.79

Value of PBM binding z-score reported for the sequence "CAAACTAGGTCACCGGAAGGTCAGAGTCCGCATG" is 4.71

Value of PBM binding z-score reported for the sequence "CCTTACGGGTCACGACGTTATAGCACGACGAGCG" is 3.57

Value of PBM binding z-score reported for the sequence "AGAATGAGGTTATTAAGATCAAGGAATTGCGGTC" is 1.37

Value of PBM binding z-score reported for the sequence "CAAACTAGGCCAAGAGGTCAAAGTCCGCTTCCCG" is 5.62

###

- Tested on: PPARg:RXRa 270nM:90nM, anti-RXR (NR concentration 270 nM, RXRa partner concentration 90 nM)
- protocol details: PBM binding z-score (relative to random genomic background probes); higher = stronger binding; sequences stand for … in GC…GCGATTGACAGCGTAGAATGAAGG
measurement type: PBM binding z-score
The reply should be a number, written without any unit.

Value of PBM binding z-score reported for the sequence "AGTCAAAGTTCAGGCCGAGGTAACGTAAAGCACG" is 5.07

Value of PBM binding z-score reported for the sequence "CCTCGGAGGACAGAAGGTCAGAGCGGTCCGCTTT" is 0.642

Value of PBM binding z-score reported for the sequence "TATACAGGGTCGAAGGCCAGAGTACGAATGTCGA" is 3.28

Value of PBM binding z-score reported for the sequence "TCTTGTAGATCAACCGGAGGTTAAGAAAGATCGA" is 1.55

Value of PBM binding z-score reported for the sequence "TAGCCTAAGTCATTGGGCCAGTATAGTACGCATC" is -0.24

###

- Tested on: THRa:RXRa (NR concentration 90 nM, RXRa partner concentration 90 nM)
- protocol details: PBM binding z-score (relative to random genomic background probes); higher = stronger binding; sequences stand for … in GC…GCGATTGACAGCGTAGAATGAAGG
Could you please report measured PBM binding z-score for the items listed next?
The reply should be a number, written without any unit.

Value of PBM binding z-score reported for the sequence "CGAACTAGGTCATTGACAGGACAGGGAATAGTAA" is 2.99

Value of PBM binding z-score reported for the sequence "ATCGAAAGGTCGTCAGGTGAGTATACAGAAAGGC" is 3

Value of PBM binding z-score reported for the sequence "ATCGAAAGGTTGAGGTGAGTATAGAGAAAGGGAA" is 2.38

Value of PBM binding z-score reported for the sequence "CTCGAAAGGTCGGTTGAGGGGAGTATACGGATAA" is 4

Value of PBM binding z-score reported for the sequence "ACTATTGGTTGACTTAGGGCAACCGATACGACGC" is 1.66

Value of PBM binding z-score reported for the sequence "TATACAGGGTCAGAGGCCAGAGTACGAATGTCGA" is 2.74

Value of PBM binding z-score reported for the sequence "TCGCGTAGGTTACCAATGGGGCATTCAGCTTTCT" is 0.107

Value of PBM binding z-score reported for the sequence "AGTCAAAGTTCACTAGGTAACGGAAGATTCAGCT" is 2.04

Value of PBM binding z-score reported for the sequence "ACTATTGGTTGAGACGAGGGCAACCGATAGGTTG" is 2.69

Value of PBM binding z-score reported for the sequence "AGAATGAGGTTAAGATCAGAGAAACAGAATACAT" is 2.29

Value of PBM binding z-score reported for the sequence "CCTACTGGGCCATTCAGAGGTCATTGAACATATG" is 3.33

Value of PBM binding z-score reported for the sequence "GCTTACGGCTCAAAGGTTATAGCATGAATAGAAT" is 1.21

Value of PBM binding z-score reported for the sequence "TCAGACCGGTGAAGGTAACTCAGGTACGCAGTCG" is 1.29

Value of PBM binding z-score reported for the sequence "TCAAGTTGGTCAAAGGTCACACACTCGAAATGCG" is 4.16

Value of PBM binding z-score reported for the sequence "CCTACTGGGCCAAAAAGGACATTGATGCCGATAA" is 0.101
